Hey, just so you know, these numbers are from patent US10654867B2.

target: estrogen receptor alpha (ESR1) in MCF7 breast cancer cells (Homo sapiens); test: Breast Cancer Cell ERa High Content Fluorescence Imaging Degradation Assay (ER-alpha MCF7 HCS); type: cell-based; design: endogenous in cells; host or cells: MCF7 breast cancer cells; conditions: 4 hours, plateau of the maximal effect, DMSO and fulvestrant define 0% and 100% change in ESR1, Table 1a
endpoint_name: ER-alpha MCF7HCS Sinf (%)

A: CC(C)C(=O)N1[C@H](c2c(F)cc(OCCN3CC(CF)C3)cc2F)c2sc3ccccc3c2C[C@H]1C (relative stereo) [Example 102]
B: C[C@@H]1Cc2[nH]c3ccccc3c2[C@@H](c2c(F)cc(OCCN3CC(CF)C3)cc2F)N1CC(C)(C)F [Example 137]
Problem: Of A and B , whose reported ER-alpha MCF7HCS Sinf is the larger number? Use the label to indicate which entry you chose.
Solution: A

---

Biological target: estrogen receptor alpha (ESR1) in MCF7 breast cancer cells (Homo sapiens, UniProt P03372)
Sequence (P03372 whole entry): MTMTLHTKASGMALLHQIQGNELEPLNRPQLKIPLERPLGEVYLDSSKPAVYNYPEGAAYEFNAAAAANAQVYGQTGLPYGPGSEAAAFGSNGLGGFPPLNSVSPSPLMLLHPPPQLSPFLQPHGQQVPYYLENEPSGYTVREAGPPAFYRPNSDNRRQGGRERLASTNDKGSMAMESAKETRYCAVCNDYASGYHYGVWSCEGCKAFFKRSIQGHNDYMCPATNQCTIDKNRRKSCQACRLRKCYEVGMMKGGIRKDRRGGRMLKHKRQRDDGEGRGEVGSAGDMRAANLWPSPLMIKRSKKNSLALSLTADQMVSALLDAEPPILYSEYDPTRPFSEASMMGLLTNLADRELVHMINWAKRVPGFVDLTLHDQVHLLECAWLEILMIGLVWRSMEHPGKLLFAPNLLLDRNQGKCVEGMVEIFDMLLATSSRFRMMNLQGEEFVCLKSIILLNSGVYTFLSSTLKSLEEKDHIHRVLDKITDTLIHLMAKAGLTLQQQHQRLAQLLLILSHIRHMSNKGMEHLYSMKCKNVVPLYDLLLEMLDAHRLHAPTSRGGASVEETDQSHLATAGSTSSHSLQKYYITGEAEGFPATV
Test: Breast Cancer Cell ERa High Content Fluorescence Imaging Degradation Assay (ER-alpha MCF7 HCS)
Assay type: cell-based
Set-up: endogenous in cells; host or cells: MCF7 breast cancer cells
Conditions: 4 hours, plateau of the maximal effect, DMSO and fulvestrant define 0% and 100% change in ESR1, Table 1a
Description: All of the exemplary Formula I, II, and III compounds in Tables 1a and 1b were made and characterized by LCMS [M+H]^+ (liquid chromatography mass spectroscopy) with detection of parent ion. […] ER-alpha MCF7 HCS Sinf (%) values in Tables 1a and 1b were measured by the Breast Cancer Cell ERa High Content Fluorescence Imaging Degradation Assay of Example 901. ER-alpha MCF7 HCS EC50 (μM) values in Tables 1a and 1b were measured by the in vitro cell proliferation assays described in Examples 902 and 903. […]
endpoint_name: ER-alpha MCF7HCS Sinf (%)

Reference set, count: 2
C[C@](F)(CO)CN1CCCc2c([nH]c3ccccc23)[C@H]1c1c(F)cc(OCCN2CC(CF)C2)cc1F; −95.9
CC1Cc2[nH]c3ccccc3c2C(c2c(F)cc(NC3CN(CCCF)C3)cc2F)N1CCF (stereo not shown); −75

a: C[C@H]1Cc2[nH]c3ccccc3c2[C@H](c2c(F)cc(OCCN3CC(CF)C3)cc2F)N1CC(C)(C)F (single isomer, unassigned)
b: C[C@@H]1Cc2c([nH]c3cccnc23)[C@@H](c2c(F)cc(OC3CN(CCCF)C3)cc2F)N1CC(C)(C)F
Problem: Of a and b , whose reported ER-alpha MCF7HCS Sinf is the larger number? Use the label to indicate which entry you chose.
Solution: a

---

target: estrogen receptor alpha (ESR1) in MCF7 breast cancer cells (Homo sapiens, UniProt P03372); assay: Breast Cancer Cell ERa High Content Fluorescence Imaging Degradation Assay (ER-alpha MCF7 HCS); assay type: cell-based; design: endogenous in cells; host or cells: MCF7 breast cancer cells; settings: 4 hours, plateau of the maximal effect, DMSO and fulvestrant define 0% and 100% change in ESR1, Table 1a
endpoint_name: ER-alpha MCF7HCS Sinf (%)

Reference set, count: 3
C[C@@H]1Cc2c([nH]c3ncccc23)[C@@H](c2c(F)cc(OC3CN(CCCF)C3)cc2F)N1CC(C)(C)F (single isomer, unassigned); −88.0
C[C@H]1Cc2[nH]c3ccccc3c2[C@H](c2c(F)cc(OCCN3CC(CF)C3)cc2F)N1CC(F)(F)CO (single isomer, unassigned); −79
C[C@@H]1Cc2[nH]c3ccccc3c2[C@@H](c2c(F)cc(OC3CN(CCCF)C3)cc2F)N1CC(F)(F)CO (relative stereo); −98.8

A: C[C@@H]1Cc2c([nH]c3ccccc23)[C@]2(Cc3ccc(OC4CN(CCCF)C4)cc3C2)N1CC(F)(F)F
B: C[C@@H]1Cc2sc3ccccc3c2[C@H](c2ccc(OCCN3CC(CF)C3)cc2)N1CC(C)(C)F (single isomer, unassigned)
C: C[C@@H]1CCN(CC(C)(C)F)[C@@H](c2c(F)cc(OCCN3CC(CF)C3)cc2F)c2[nH]c3ccccc3c21
Problem: Please list these in order of increasing ER-alpha MCF7HCS Sinf. Thank you! Use the labels to give the ranking in the order requested.
Solution: B, C, A
